Tested on: CAKI-1 renal
Test details: NCI-60 one-dose screen, 48 h (100 = growth as untreated, 0 = no growth, -100 = all killed)
Measurement setup: 10 µM unless noted
The panel holds about 83,000 compounds, 20% with a hit somewhere; the sample as a whole holds those more often.
growth values for the molecules below.
Response body: numeric value in %, unit text excluded.

Recorded results for 6 molecules are shown here.
CC(=O)O[C@H]1[C@@H]2OC(=O)C(CSc3ccccc3)[C@@H]2C[C@H]2O[C@]2(C)CC/C=C(\C)CCC[C@@H]1C (some centres not stated) : 2.92
C/C1=C\CC[C@@]2(C)O[C@H]2[C@H]2OC(=O)C(CN3CCN(CC4C(=O)O[C@H]5[C@H]4CC/C(C)=C/CC[C@@]4(C)O[C@@H]54)CC3)[C@@H]2CC1 (some centres not stated) : 94
COc1ccc(CCNc2nc3c(c(=O)n(Cc4ccc(Br)cc4)c(=O)n3C)n2C)cc1OC : 85.6
COc1cccc(-c2nc3sccn3c2-c2ccnc(NCCCNS(=O)(=O)c3c(Cl)cccc3Cl)c2)c1 : 44.1
O=C1NC(=Nc2ccc(O)cc2)S/C1=C\c1cccc(Cl)c1 : 70
C=C(C)[C@@H]1CC[C@]2(C(=O)OC)CC[C@]3(C)[C@H](CC[C@@H]4[C@@]5(C)C/C(=C/c6cccc(I)c6)C(=O)C(C)(C)[C@@H]5CC[C@]43C)[C@@H]12 : 82

We next turn to a different molecule, shown below.
QUERY: Fill blank: measured growth of the molecule CCOc1cc2ncc(C#N)c(Nc3ccc(F)c(Cl)c3)c2cc1NC(=O)CC1CCSS1 (configuration not stated) is ____.
RESULT: -73.4
